- System: K562
- PROTOCOL_DETAILS: NCI tumour cell line growth inhibition, 48 h
Active and inactive are the calls of the source. Cut-off read from the data, not from the text of the source: active = GI50 up to about 1.1 µM and inactive = higher.
Bench note: report the call from active, inactive

O=C1Cc2c([nH]c3ccc(C(=O)O)cc23)-c2ccccc2N1
inactive
C[C@@H](NC(=O)c1ccc(CNC(=O)/C=C/c2cccc(Oc3ccccc3)c2)cc1)c1ccccc1
inactive
O=c1[nH]n(Cc2ccccc2Cl)c2ccc([N+](=O)[O-])cc12
inactive
CCCCN(CC)C(=O)C(=O)Cc1nc2ccc(C(=O)c3ccccc3)cc2nc1O
inactive

Request: Status in this test for COC1=C(C)C(=O)C2=C(C1=O)C1C3CC4=C(C(=O)C(OC)=C(C)C4=O)C(CNC(=O)C(C)O)N3C(C#N)C(C2)N1C (stereo not given) ?
Result: active

Request: How about this molecule: `O=C(NCCNCCNC(=O)C(F)(F)F)C(F)(F)F`
Result: inactive

Request: Follow-up entry: `N#Cc1nc(-c2ccsc2)oc1N`
Result: inactive

Request: For `c1cc2c(cc1C(N1CCNCC1)N1CCNCC1)OCO2` then?
Result: inactive

Request: Now this one: CC[C@]1(Cc2ccc(OC)c(OC)c2)C=[N+]([O-])O[C@H](OC2CCCCC2c2ccccc2)[C@@H]1OC(C)=O (stereo not given in full)
Result: inactive

Request: What about this molecule? COc1ccc2c(c1)C(O)(C(F)(F)F)c1cc(C(=O)C(F)(F)F)c3ccccc3c1N2 (stereo not given)
Result: inactive

Request: Subsequent entry: `O=[N+]([O-])c1ccc(N2CCC(CCCC3CCN(c4ccc([N+](=O)[O-])cc4[N+](=O)[O-])CC3)CC2)c([N+](=O)[O-])c1`
Result: inactive

Request: Same again, this time with `N=C(N)N/N=C/c1ccc(O)c(C(=O)O)c1`
Result: inactive

Request: # repeat for CCOC(=O)C(Cc1ccccc1)NC(=O)OC(C)(C)C (stereo not given)
Result: inactive

Request: Do the same for Cc1ccc(S(=O)OCC23CC4CC(CC(C4)C2)C3)cc1 (stereo not given) please
Result: inactive

Request: What would you report for `Cc1cc(OC(=O)Nc2ccc(Cl)cc2)ccc1C(=S)Nc1ccccc1` ?
Result: inactive

Request: Same read-out for `Cc1ccc(NC(=O)c2cc3ccccc3c(/N=N\c3ccccc3O)c2O)c(C)c1` ?
Result: inactive

Request: Please answer likewise for `Cc1ccc(S(=O)(=O)c2c(N)c3nc4ccccc4n3c3nc4ccccc4nc23)cc1`
Result: inactive

Request: Subsequent entry: `O=C1C=C(N2CCN(c3ncccn3)CC2)C(=O)c2c(O)ccc(O)c21`
Result: inactive

Request: What do we get for `Nc1nc(NCCO)c(N=O)c(=O)[nH]1` ?
Result: inactive

Request: Same question, NC(CCC(=O)NC(CSC(=O)N(O)c1ccc(Cl)cc1)C(=O)NCC(=O)O)C(=O)O (stereo not given) this time
Result: active

Request: Try the molecule `CCOC(=O)/C=C(/C(=O)OCC)n1ccc(=O)n(Cc2cn(CCCCOC(C)=O)nn2)c1=O`
Result: inactive

Request: Query CC(C)CC12CC3CCC(CNC1=O)C32C (stereo not given) next
Result: inactive

Request: Queued: CCOC(=O)C1=C(C(=O)OCC)C2(c3ccccc3)N(O1)c1ccccc1C2(C)C (stereo not given)
Result: inactive

Request: Similarly, COC(=O)C1C(O)CCC2CN3CCc4c([nH]c5ccccc45)C3CC21 (stereo not given) ?
Result: inactive

Request: Item: `CC(/C=C/C(=O)c1sc(C(N)=S)nc1C)=C\c1ccccc1`
Result: inactive
